The values you see were collected from patent US20250152584A1.

Experiment: Pharmacokinetic study in SD male rats
Assay type: in vivo
Settings: rat, plasma, intravenous bolus 1.0 mg/kg, read-out: AUClast iv (area under the drug-time curve for 0-24 h)
ATTRIBUTE_MEASURED: AUC(0-t) (ng·h/mL)
Numbers only, in ng·h/mL.

Study these solved cases before continuing.
C#Cc1ccc(-c2nnc(N[C@H]3C[C@@](C)(O)C3)cc2C)c(O)c1
5130
CC#Cc1ccc(-c2nnc(N[C@@H]3CCCN(C)C3)cc2C)c(O)c1
813
CC#Cc1ccc(-c2nnc(N[C@@H]3CCCN(C)C3)cc2C2CC2)c(O)c1
811
C#Cc1ccc(-c2nnc(N[C@@H]3CCCN(C)C3)cc2C)c(O)c1
749

Here's the next entry for you.
### Prompt Please look up its AUC(0-t): C#Cc1ccc(-c2nnc(N[C@@H]3CCCN(C)C3)cc2C2CC2)c(O)c1
### Response 1100

====

Exercise: for every item that follows, state its recorded log10(AUC(0-t)).
Assay: Pharmacokinetic study in SD male rats
Assay type: in vivo
Settings: rat, plasma, po, gavage 5.0 mg/kg, read-out: AUClast po (area under the drug-time curve for 0-24 h)
In plain terms, each number is the log10 of measured AUC(0-t) in ng·h/mL.

C#Cc1ccc(-c2nnc(N[C@H]3C[C@@](C)(O)C3)cc2C)c(O)c1 [Compound 55]
4.59
CC#Cc1ccc(-c2nnc(N[C@@H]3CCCN(C)C3)cc2C2CC2)c(O)c1 [Compound 264]
3.49
CC#Cc1ccc(-c2nnc(N[C@@H]3CCCN(C)C3)cc2C)c(O)c1 [Compound 174]
3.65
C#Cc1ccc(-c2nnc(N[C@@H]3CCCN(C)C3)cc2C2CC2)c(O)c1 [Compound 173]
3.67

Here's the next entry for you.
### Prompt Please look up its log10(AUC(0-t)): C#Cc1ccc(-c2nnc(N[C@@H]3CCCN(C)C3)cc2C)c(O)c1 [Compound 54]
### Response 3.58

====

Exercise: for every item that follows, state its recorded half-life.
Assay: Pharmacokinetic study in C57BL/6J mice
Type: in vivo
Details: mouse, plasma, po; C57BL/6J female mice, gavage 10 mg/kg; read-out: tz1/2 po (terminal elimination half-life) (converted)
Answers are plain numbers, in h.

Study these solved cases before continuing.
CC#Cc1ccc(-c2nnc(N[C@@H]3CCCN(C)C3)cc2C)c(O)c1
3.82
CC#Cc1ccc(-c2nnc(N[C@@H]3CCCN(C)C3)nc2C)c(O)c1
3.12

For each of the items listed, what is its half-life?
1. C#Cc1ccc(-c2nnc(N[C@@H]3CCCN(CCO)C3)cc2C)c(O)c1
2. C#Cc1ccc(-c2nnc(N[C@@H]3CCCN(C)C3)c3c2CCCC3)c(O)c1
3. C#Cc1ccc(-c2nnc(N[C@@H]3CCCN(C)C3)nc2C2CC2)c(O)c1
4. C#Cc1ccc(-c2nnc(N[C@@H]3CCCN(C)C3)c3ccccc23)c(O)c1
5. C#Cc1ccc(-c2nnc(N[C@@H]3CCCN(C)C3)cc2C)c(O)c1

### Response
1. 3.49
2. 3
3. 2.19
4. 2.76
5. 3.04

====

Exercise: for every item that follows, state its recorded Tmax.
Assay: Pharmacokinetic study in C57BL/6J mice
Assay type: in vivo
Conditions: mouse, plasma, po; C57BL/6J female mice, gavage 10 mg/kg; median; read-out: Tmax po (peak time of plasma concentration)
One number for each entry, in min.

Study these solved cases before continuing.
CC#Cc1ccc(-c2nnc(N[C@@H]3CCCN(C)C3)nc2C)c(O)c1
60
C#Cc1ccc(-c2nnc(N[C@@H]3CCCN(C)C3)nc2C2CC2)c(O)c1
30
CC#Cc1ccc(-c2nnc(N[C@@H]3CCCN(C)C3)cc2C)c(O)c1
30
C#Cc1ccc(-c2nnc(N[C@@H]3CCCN(C)C3)c3ccccc23)c(O)c1
120
C#Cc1ccc(-c2nnc(N[C@@H]3CCCN(C)C3)c3c2CCCC3)c(O)c1
15
C#Cc1ccc(-c2nnc(N[C@@H]3CCCN(C)C3)cc2C)c(O)c1
60

Here's the next entry for you.
### Prompt Please look up its Tmax: C#Cc1ccc(-c2nnc(N[C@@H]3CCCN(CCO)C3)cc2C)c(O)c1
### Response 30

====

Assay: Pharmacokinetic study in SD male rats
Format: in vivo
Conditions: rat, plasma, intravenous bolus 1.0 mg/kg, read-out: tz1/2 iv (terminal elimination half-life) (converted)
Exercise: for every item that follows, state its recorded half-life.
Answers are plain numbers, in h.

Study these solved cases before continuing.
CC#Cc1ccc(-c2nnc(N[C@@H]3CCCN(C)C3)cc2C2CC2)c(O)c1 [Compound 264]
8.89
C#Cc1ccc(-c2nnc(N[C@H]3C[C@@](C)(O)C3)cc2C)c(O)c1 [Compound 55]
5.24
CC#Cc1ccc(-c2nnc(N[C@@H]3CCCN(C)C3)cc2C)c(O)c1 [Compound 174]
3.6
C#Cc1ccc(-c2nnc(N[C@@H]3CCCN(C)C3)cc2C2CC2)c(O)c1 [Compound 173]
6.13

Here's the next entry for you.
### Prompt Please look up its half-life: C#Cc1ccc(-c2nnc(N[C@@H]3CCCN(C)C3)cc2C)c(O)c1 [Compound 54]
### Response 2.97

====

Experiment: Pharmacokinetic study in C57BL/6J mice
Type: in vivo
Settings: mouse, plasma; C57BL/6J female mice, iv 5 mg/kg / po 10 mg/kg; read-out: F % (absolute bioavailability)
I would appreciate it if you labelled entries fulfilled when bioavailability is 80% or higher, otherwise not fulfilled.

// below: answered compounds
CC#Cc1ccc(-c2nnc(N[C@@H]3CCCN(C)C3)nc2C)c(O)c1 [Compound 195]
fulfilled
C#Cc1ccc(-c2nnc(N[C@@H]3CCCN(CCO)C3)cc2C)c(O)c1 [Compound 253]
fulfilled
C#Cc1ccc(-c2nnc(N[C@@H]3CCCN(C)C3)cc2C)c(O)c1 [Compound 54]
not fulfilled
C#Cc1ccc(-c2nnc(N[C@@H]3CCCN(C)C3)c3c2CCCC3)c(O)c1 [Compound 1]
not fulfilled

Consider now this further compound.
### Prompt hey, is bioavailability for this one >= 80%? CC#Cc1ccc(-c2nnc(N[C@@H]3CCCN(C)C3)cc2C)c(O)c1 [Compound 174]
### Response fulfilled

====

Test: Pharmacokinetic study in C57BL/6J mice
Assay type: in vivo
Conditions: mouse, plasma; C57BL/6J female mice, intravenous bolus 5 mg/kg; read-out: AUClast iv (area under the drug-time curve for 0-24 h)
ATTRIBUTE_MEASURED: AUC(0-t) (ng·h/mL)
Numbers only, in ng·h/mL.

Study these solved cases before continuing.
C#Cc1ccc(-c2nnc(N[C@@H]3CCCN(C)C3)cc2C)c(O)c1
2400
CC#Cc1ccc(-c2nnc(N[C@@H]3CCCN(C)C3)cc2C)c(O)c1
8610
C#Cc1ccc(-c2nnc(N[C@@H]3CCCN(C)C3)c3c2CCCC3)c(O)c1
1820
CC#Cc1ccc(-c2nnc(N[C@@H]3CCCN(C)C3)nc2C)c(O)c1
3580
C#Cc1ccc(-c2nnc(N[C@@H]3CCCN(C)C3)nc2C2CC2)c(O)c1
2470
C#Cc1ccc(-c2nnc(N[C@@H]3CCCN(C)C3)c3ccccc23)c(O)c1
6360

Here's the next entry for you.
### Prompt Please look up its AUC(0-t): C#Cc1ccc(-c2nnc(N[C@@H]3CCCN(CCO)C3)cc2C)c(O)c1
### Response 3200

====

Exercise: for every item that follows, state its recorded Vd.
Assay: Pharmacokinetic study in SD male rats
Type: in vivo
Conditions: rat, plasma, intravenous bolus 1.0 mg/kg, read-out: Vss iv (volume of distribution)
Method: Experimental Example 3: Pharmacokinetic Study of Compounds in SD Male Rats […] The results of the concentrations of the compounds under test were output using Analyst 1.6.3 of AB. Parameters such as mean, standard deviation, coefficient of variation was calculated by Microsoft Excel (parameters directly output by Analyst 1.6.3 needed no calculation), and PK parameters were calculated by WinNonlin Phenoix 8.2 software NCA (Tmax as the median).
Give bare numbers, in L/kg.

C#Cc1ccc(-c2nnc(N[C@@H]3CCCN(C)C3)cc2C)c(O)c1
5.01

For each of the items listed, what is its Vd?
1. C#Cc1ccc(-c2nnc(N[C@H]3C[C@@](C)(O)C3)cc2C)c(O)c1
2. C#Cc1ccc(-c2nnc(N[C@@H]3CCCN(C)C3)cc2C2CC2)c(O)c1
3. CC#Cc1ccc(-c2nnc(N[C@@H]3CCCN(C)C3)cc2C2CC2)c(O)c1

### Response
1. 1.12
2. 6.92
3. 12.5
